system: MCF7/hPRLR (MCF7/PRLR) cells; assay: Cell viability (cell kill) assay, nuclear counts; format: cell-based, human; settings: Table 12, 3 days
pIC50: −log10 of the molar value.
In this section, each of the molecules is paired with its reported pIC50.

>  <molecule>
H1H6958N2-DM1: anti-PRLR antibody H1H6958N2 conjugated to DM1 through an SMCC linker (conjugate) VH: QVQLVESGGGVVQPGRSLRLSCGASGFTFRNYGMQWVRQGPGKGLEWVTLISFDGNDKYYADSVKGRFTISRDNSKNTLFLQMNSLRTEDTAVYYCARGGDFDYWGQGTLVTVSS VL: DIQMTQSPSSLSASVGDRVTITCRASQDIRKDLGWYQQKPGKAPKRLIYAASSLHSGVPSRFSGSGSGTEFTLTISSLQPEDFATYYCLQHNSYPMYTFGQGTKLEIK

>  <pIC50>
9.72

$$$$
>  <molecule>
H1H6765P-DM1: anti-PRLR antibody H1H6765P conjugated to DM1 through an SMCC linker (conjugate) VH: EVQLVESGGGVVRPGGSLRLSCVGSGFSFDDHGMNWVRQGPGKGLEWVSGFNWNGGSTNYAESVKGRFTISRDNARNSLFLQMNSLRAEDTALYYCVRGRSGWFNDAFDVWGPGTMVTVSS VL: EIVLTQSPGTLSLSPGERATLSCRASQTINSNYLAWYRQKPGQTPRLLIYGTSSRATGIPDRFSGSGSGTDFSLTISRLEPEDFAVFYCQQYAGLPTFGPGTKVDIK

>  <pIC50>
9.74

$$$$
>  <molecule>
H1H6975N-DM1 (conjugate) VH: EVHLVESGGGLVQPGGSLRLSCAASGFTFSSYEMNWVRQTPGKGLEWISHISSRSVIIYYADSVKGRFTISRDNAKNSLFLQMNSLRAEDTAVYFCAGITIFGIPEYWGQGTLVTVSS VL: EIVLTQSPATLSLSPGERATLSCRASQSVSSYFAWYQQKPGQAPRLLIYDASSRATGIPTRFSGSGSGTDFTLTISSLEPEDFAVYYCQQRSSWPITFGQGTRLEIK

>  <pIC50>
9.31

$$$$
